test: ATG_M_06_TRANS: Attagene TRANS-FACTORIAL HepG2 Assay for M06 Transcription Factor (Internal Marker) (AID 2282983); settings: HepG2 Attagene TRANS M06 internal marker reporter
Records with an inconclusive call do not appear. Activity calls are given as the source filed them. Rule for the calls: active = hit-call score of the fitted dose curve at least 0.9, where 1 is the maximum; inconclusive = response in the unintended direction; inactive = score below 0.9.
Classes used: active, inactive

molecule: C=C(C)CNCC
label: inactive

molecule: CC(=O)CC(=O)Nc1ccc(C)cc1C
label: inactive

molecule: NCC1CCCC(CN)C1 (stereo not drawn)
label: inactive

molecule: CC(=O)C(C)O (stereo not drawn)
label: inactive

molecule: O=CCc1ccccc1
label: inactive

molecule: Cc1cc(=O)oc2cc(N(C)C)ccc12
label: inactive

molecule: O=C1OC[C@H](Cc2cccc(O)c2)[C@H]1Cc1cccc(O)c1
label: inactive

molecule: CN(c1nccc(=O)[nH]1)C1CCN(c2nc3ccccc3n2Cc2ccc(F)cc2)CC1
label: inactive

molecule: c1ccc(CN(Cc2ccccc2)Cc2ccccc2)cc1
label: inactive

molecule: CC/C=C\CC/C=C/CO
label: inactive

molecule: CC1CCC(C(C)C)C(O)C1 (stereo not drawn)
label: inactive

molecule: COc1cc(C(C)C)ccc1C
label: inactive

molecule: CCCCCCCCCCCCCCN(CCO)CCO
label: active

* * *

target: Hepatocyte nuclear factor 3-beta (Homo sapiens); assay: ATG_FoxA2_CIS: Attagene CIS-FACTORIAL HepG2 Assay for human Forkhead box A2 (FOXA2) (AID 2282942); conditions: HepG2 cis-reporter transcription factor activity, 24 h; actives raise or lower the signal
Calls of active or inactive are those of the source. How the source made its calls: active means hit-call score of the fitted dose curve at least 0.9, where 1 is the maximum; inactive means score below 0.9.
property.label: outcome

compound: COc1ccc(CCN2CCC(Nc3nc4ccccc4n3Cc3ccc(F)cc3)CC2)cc1
reading: inactive
--
compound: CC1(C)C(=O)N(Cl)C(=O)N1Br
reading: inactive
--
compound: O=C1NC2NC(=O)NC2N1 (centres undefined)
reading: inactive
--
compound: CCOCCOCCOCC
reading: inactive
--
compound: CN(C)c1cccc(O)c1
reading: inactive
--
compound: COC(C)(C)CCCC(C)CC=O (centres undefined)
reading: inactive
--
compound: c1ccc2[nH]cnc2c1
reading: inactive
--
compound: CC(=O)CC(=O)Nc1ccccc1
reading: inactive
--
compound: CCOC(=O)C(C#N)=C(c1ccccc1)c1ccccc1
reading: inactive
--
compound: CCCCCCC(O)CCCCCCCCCCC(=O)O (centres undefined)
reading: inactive
--
compound: CC1=C(Br)C(=O)C(Br)=C/C1=C(/c1ccccc1S(=O)(=O)O)c1cc(Br)c(O)c(Br)c1C
reading: inactive
--
compound: COC(=O)Nc1ccc(Cl)c(Cl)c1
reading: inactive
--
compound: CC(CN=Cc1ccccc1O)N=Cc1ccccc1O (centres undefined)
reading: inactive
--
compound: COc1ccc(N)c([N+](=O)[O-])c1
reading: inactive
--
compound: Cc1ccc(S(N)(=O)=O)cc1
reading: inactive
--
compound: O=C1OC(=O)c2c(Br)c(Br)c(Br)c(Br)c21
reading: inactive
--
compound: CCC(Cl)C(Cl)C(Cl)CC(Cl)C(Cl)C(C)Cl (centres undefined)
reading: inactive
--
compound: CCCOCCO
reading: inactive
--
compound: C[C@H]1O[C@@H](O[C@H]2[C@@H](O)C[C@H](O[C@H]3[C@@H](O)C[C@H](O[C@H]4CC[C@@]5(C)[C@H](CC[C@@H]6[C@@H]5C[C@@H](O)[C@]5(C)[C@@H](C7=CC(=O)OC7)CC[C@]65O)C4)O[C@@H]3C)O[C@@H]2C)C[C@H](O)[C@@H]1O
reading: inactive
--
compound: Cc1cc(=O)oc2cc(N(C)C)ccc12
reading: inactive
--
compound: Cc1ccc(OC(=O)c2ccccc2O)cc1
reading: inactive
--
compound: O=[N+]([O-])c1ccc(O)cc1C(F)(F)F
reading: inactive
--
compound: Nc1ccc(Cl)c([N+](=O)[O-])c1
reading: inactive
--
compound: C=C(C)C(=O)OCCOCCOCCOC(=O)C(=C)C
reading: inactive
--
compound: Cc1ncc[nH]1
reading: inactive
--
compound: CC1=NN(c2ccc(S(=O)(=O)O)cc2)C(=O)C1
reading: inactive
--
compound: CC(C)Nc1nc(N)nc(Cl)n1
reading: inactive
--
compound: O=[N+]([O-])c1cccc(Cl)c1
reading: inactive
--
compound: CCC(=O)OCCOc1ccccc1
reading: inactive
--
compound: Clc1cc(Cl)c(-c2c(Cl)c(Cl)cc(Cl)c2Cl)cc1Cl
reading: inactive
--
compound: C=Cc1ccncc1
reading: inactive
--
compound: C=CC(=O)OCCC#N
reading: inactive
--
compound: O=C1OC2(c3ccccc31)c1ccc(O)c(Br)c1Oc1c2ccc(O)c1Br
reading: inactive
--
compound: CCCCOC(=O)CCCCCCCC(=O)OCCCC
reading: inactive
--
compound: CC(C)CCCCCCCCCCCCCCC(=O)O
reading: inactive
--
compound: COc1ccc(CCC(C)=O)cc1
reading: inactive
--
compound: OCc1ccc(Cl)cc1Cl
reading: inactive
--
compound: CCCCCCOC(=O)CCC
reading: inactive
--
compound: Cc1ncc([N+](=O)[O-])n1CCO
reading: inactive
--
compound: CC(C)NCC(O)COc1ccc(CC(N)=O)cc1 (centres undefined)
reading: inactive
--
compound: CCCCC(CC)C(=O)OC(C)C (centres undefined)
reading: inactive
--
compound: Oc1c(Cl)cc(Cl)c(Cl)c1Cc1c(O)c(Cl)cc(Cl)c1Cl
reading: inactive
--
compound: COC(=O)c1ccc(C)cc1C1=NC(C)(C(C)C)C(=O)N1 (centres undefined) (tested in a mixture with another compound)
reading: inactive
--
compound: O=P(O)(O)O
reading: inactive
--
compound: O=C(Nc1ccc([N+](=O)[O-])cc1)Nc1ccc([N+](=O)[O-])cc1 (tested in a mixture with another compound)
reading: inactive
--
compound: CCCCCCCCCCCCCC(=O)OCC(O)CO (centres undefined)
reading: inactive
--
compound: c1ccc(Oc2ccccc2)cc1
reading: inactive
--
compound: CN1CCOCC1
reading: inactive
--
compound: COC(C)(C)CCO
reading: inactive
--
compound: CCNCCO
reading: inactive
--
compound: CC[N+](C)(CC)CC
reading: inactive
--
compound: CCCCCCCCCCCC(=O)OC[C@@H](O)[C@H]1OC[C@H](O)[C@H]1O
reading: inactive
--
compound: CC(=O)c1c(C)c([N+](=O)[O-])c(C(C)(C)C)c([N+](=O)[O-])c1C
reading: inactive
--
compound: [Cl][Au]([Cl])[Cl]
reading: inactive

* * *

assay: ATG_Oct_MLP_CIS: Attagene CIS-FACTORIAL HepG2 Assay for human Octamer-Binding Transcription Factor (Oct) (AID 2282993); settings: HepG2 Attagene cis-factorial Oct reporter, mRNA; actives raise or lower the signal
The source made the active and inactive calls. How the source made its calls: active means hit-call score of the fitted dose curve at least 0.9, where 1 is the maximum; inactive means score below 0.9.
Classes used: active, inactive

compound: CCCCC(CC)COC(C)=O (stereo unspecified)
label: inactive
//
compound: CCCOCCO
label: inactive
//
compound: Cc1ccc(-c2ccccc2)cc1
label: inactive
//
compound: O=C1NC2NC(=O)NC2N1 (stereo unspecified)
label: active
//
compound: C#CC(C)(O)CC(C)C (stereo unspecified)
label: inactive
//
compound: C=CCN(CC=C)CC=C
label: inactive
//
compound: CCCCCCC(C)(C)S
label: inactive
//
compound: C=C1C[C@]23C[C@@]1(O)CC[C@H]2[C@@]12C=C[C@H](O)[C@@](C)(C(=O)O1)[C@H]2[C@@H]3C(=O)O
label: inactive
//
compound: COc1ccc(N=Nc2cc(C)c(N=Nc3ccc(S(=O)(=O)O)cc3)cc2OC)cc1
label: inactive
//
compound: CCC(=O)OCCOc1ccccc1
label: inactive
//
compound: C=C(C)C1CC=C(C)C(=O)C1 (stereo unspecified)
label: inactive
//
compound: CC(C)C[C@H](NC(=O)OCC1c2ccccc2-c2ccccc21)C(=O)O
label: inactive
//
compound: COc1cc(Cl)c(OC)cc1N
label: inactive
//
compound: CCc1cc(Cc2cc(CC)cc(C(C)(C)C)c2O)c(O)c(C(C)(C)C)c1
label: active
//
compound: CCc1ccc(O)c(OC)c1
label: inactive
//
compound: c1ccc(CN(Cc2ccccc2)Cc2ccccc2)cc1
label: inactive
//
compound: C[Si](C)(C)O[Si](C)(C)C
label: inactive
//
compound: C[C@H]1O[C@@H](O[C@H]2[C@@H](O)C[C@H](O[C@H]3[C@@H](O)C[C@H](O[C@H]4CC[C@@]5(C)[C@H](CC[C@@H]6[C@@H]5C[C@@H](O)[C@]5(C)[C@@H](C7=CC(=O)OC7)CC[C@]65O)C4)O[C@@H]3C)O[C@@H]2C)C[C@H](O)[C@@H]1O
label: active
//
compound: CCc1cc(C(C)(C)C)c(O)c(C(C)(C)C)c1
label: inactive
//
compound: O=C1OC[C@H](Cc2cccc(O)c2)[C@H]1Cc1cccc(O)c1
label: inactive
//
compound: CC(C)(N=C=O)c1cccc(C(C)(C)N=C=O)c1
label: inactive
//
compound: COCCOCCOCCO
label: inactive
//
compound: CN(C)CCOc1ccc(/C(=C(/CCCl)c2ccccc2)c2ccccc2)cc1
label: inactive
//
compound: CCCC(=O)OCCc1ccccc1
label: inactive
//
compound: CCN(CCN)c1cccc(C)c1
label: inactive
//
compound: c1ccc(CCc2ccccc2)cc1
label: inactive
